Data origin: ChEMBL document CHEMBL2046272

# SYSTEM: MDR1 (P-glycoprotein, ABCB1) (Homo sapiens, UniProt P08183)
# TEST_DETAILS: in vitro
# REPORTED_CONDITIONS: mouse L5178Y cells expressing human recombinant MDR1, probe rhodamine-123
# Description: Inhibition of human recombinant MDR1 expressed in mouse L5178Y cells assessed as inhibition of rhodamine-123 efflux at 10^-4 M preincubated for 10 mins measured after 20 mins by FACS analysis
Each record gets a class by inhibition at 20 min, 100 µM: range A = under 3%, range B = from 3% up to 20%, range C = 20% and over

# COMPOUND, CATEGORY
data = [
    ("CN(C)CCOc1ccc(-c2cc(=O)c3ccccc3n2C)cc1", "range B"),
    ("O=C1Cc2cc(CCN3CCN(c4nsc5ccccc45)CC3)c(Cl)cc2N1", "range B"),
    ("Cc1ccc(S(=O)(=O)Nc2ccc3c(c2)nc(C)n3Cc2ccccc2)cc1", "range C"),
    ("O=C1NCCN1CCN1CCC(c2cn(-c3ccc(F)cc3)c3ccc(Cl)cc23)CC1", "range C"),
    ("Cc1ccc(S(=O)(=O)Nc2ccc3nc(-c4cccn4C)[nH]c3c2)cc1", "range B"),
    ("CCCOc1ccc(-c2cc(=O)c3ccccc3n2C)cc1", "range A"),
    ("c1ccc(CCN(Cc2ccccc2)Cc2cccc(OCc3ccccc3)c2)cc1", "range A"),
    ("N#Cc1c(C(F)(F)F)cc(Cc2ccccc2)nc1SCc1ccc(C(=O)O)cc1", "range A"),
    ("CCOC(=O)c1cn(C2CC2)c2cc(N3CCC4=C(C3)/C(=N/O)C(C)CS4)c(N)cc2c1=O (stereo unspecified)", "range C"),
    ("COc1ccc(C2=Nc3ccccc3SC2)cc1OC", "range C"),
    ("COc1cccc(CNC(C)C(O)c2ccccc2)c1 (stereo unspecified)", "range A"),
]

---

# System: Staphylococcus aureus
# TEST_DETAILS: microbe, parasite or virus in culture
# Format: functional
# REPORTED_CONDITIONS: SA-1199B
# Description: Antibacterial activity against Staphylococcus aureus SA-1199B harboring grlA A116E mutant by microdilution techniques
RECORDED_ENDPOINT: MIC

# COMPOUND, EXPERIMENTAL_VALUE
data = [
    ("O=C1NCCN1CCN1CCC(c2cn(-c3ccc(F)cc3)c3ccc(Cl)cc23)CC1", "25 µg/mL"),
    ("O=C1Cc2cc(CCN3CCN(c4nsc5ccccc45)CC3)c(Cl)cc2N1", "> 100 µg/mL"),
    ("COc1ccc(CCN2CCC(Nc3nc4ccccc4n3Cc3ccc(F)cc3)CC2)cc1", "100 µg/mL"),
    ("CN(C)C(=O)C(CCN1CCC(O)(c2ccc(Cl)cc2)CC1)(c1ccccc1)c1ccccc1 [LOPERAMIDE]", "> 100 µg/mL"),
    ("O=C1CCc2ccc(OCCCCN3CCN(c4cccc(Cl)c4Cl)CC3)cc2N1", "> 100 µg/mL"),
    ("CC(C)(C)c1ccc(C(=O)CCCN2CCC(OC(c3ccccc3)c3ccccc3)CC2)cc1", "> 100 µg/mL"),
]

---

# SYSTEM: Quinolone resistance protein NorA (Staphylococcus aureus)
# Sequence (whole entry): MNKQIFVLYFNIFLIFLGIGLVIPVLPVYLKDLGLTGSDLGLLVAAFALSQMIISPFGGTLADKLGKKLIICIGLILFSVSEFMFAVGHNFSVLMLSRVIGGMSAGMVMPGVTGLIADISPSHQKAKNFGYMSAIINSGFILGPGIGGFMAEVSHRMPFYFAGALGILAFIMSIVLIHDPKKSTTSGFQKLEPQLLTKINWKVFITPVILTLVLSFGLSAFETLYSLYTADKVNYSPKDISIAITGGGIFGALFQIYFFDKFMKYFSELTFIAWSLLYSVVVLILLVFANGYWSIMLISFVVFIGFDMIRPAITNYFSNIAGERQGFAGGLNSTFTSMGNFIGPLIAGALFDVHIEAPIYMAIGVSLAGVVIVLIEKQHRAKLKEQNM
# REPORTED_CONDITIONS: SA-1199B, at 50 µM
# Description: Inhibition of norA-mediated ethidium bromide efflux in Staphylococcus aureus SA-1199B harboring grlA A116E mutant at 50 uM after 5 mins by fluorometric analysis

# MOLECULE, UNIT_INFO, inhibition
measured = [
    ("O=C1CCc2ccc(OCCCCN3CCN(c4cccc(Cl)c4Cl)CC3)cc2N1", "%", 92.3),
    ("C=C[C@H]1CN2CC[C@H]1C[C@@H]2[C@@H](O)c1ccnc2ccc(OC)cc12", "%", 31.5),
    ("CCOc1cc(CC(=O)N[C@@H](CC(C)C)c2ccccc2N2CCCCC2)ccc1C(=O)O [REPAGLINIDE]", "%", 14),
    ("CCN(CC)CCCN(c1ccccc1)C1Cc2ccccc2C1", "%", 51.6),
    ("O=C1Cc2cc(CCN3CCN(c4nsc5ccccc45)CC3)c(Cl)cc2N1", "%", 86.6),
]
